# Experimental Target: PLpro of SARS-CoV-2 (Severe acute respiratory syndrome coronavirus 2)
# Test Protocol: Enzyme activity test in vitro: inhibition of PLpro at fixed concentration 50 μM (RLRGG-AMC substrate)
# Type: biochemical
# Experimental Context: read-out: Inhibition rate at 50 μM (%)
Could you please report measured inhibition at 50 µM for the items listed next?
Answers are plain numbers, in %.

COC(=O)c1cccc(Nc2c(-c3ccc(O)cc3)nc3cnccn23)c1 = 48.5
O=C(O)c1cccc(Nc2c(-c3ccc(N4CCOCC4)cc3)nc3cnccn23)c1 = 35.1

Respectfully, I request inhibition at 50 µM for each entry included below.
1. O=C(NCC1CCCO1)c1cccc(Nc2c(-c3ccccc3)nc3cnccn23)c1 (stereo not drawn)
2. CCOC(=O)c1ccc(Nc2c(-c3ccc(N4CCOCC4)cc3)nc3cnccn23)cc1
3. O=C(NCC1CCCO1)c1ccc(Nc2c(-c3ccccc3)nc3cnccn23)cc1 (stereo not drawn)
4. O=C(c1cccc(Nc2c(-c3ccc(Cl)cc3)nc3cnccn23)c1)N1CCOCC1

41
24.7
25.8
24.7

----------
# Experimental Target: PLpro of SARS-CoV-2 (Severe acute respiratory syndrome coronavirus 2)
# Test Protocol: Enzyme activity test in vitro: inhibition of PLpro at fixed concentration 50 μM (RLRGG-AMC substrate)
# Format: biochemical
# Experimental Context: read-out: Inhibition rate at 50 μM (%)
For each entry below, report its inhibition at 50 µM value.
One number for each entry, in %.

O=C(NC1CCCCC1)c1cccc(Nc2c(-c3ccc(F)cc3)nc3cnccn23)c1 [P22481] = 11.8
Cc1ccc(-c2nc3cnccn3c2Nc2cccc(C(=O)O)c2)cc1 [P37308] = 20.8
COc1ccc(-c2nc3cnccn3c2Nc2c(C)cccc2C)cc1OC [P19483] = 37.8
O=C(c1cccc(Nc2c(-c3ccc(Cl)cc3)nc3cnccn23)c1)N1CCCCC1 [P22468] = 29

Give inhibition at 50 µM for each listed item.
1. CCOC(=O)c1ccc(Nc2c(-c3ccc(OC)cc3)nc3cnccn23)cc1 [P22531]
2. CCOC(=O)c1ccc(Nc2c(-c3ccc(C)cc3)nc3cnccn23)cc1 [P22482]
3. COC(=O)c1cccc(Nc2c(-c3cc(Br)ccc3O)nc3cnccn23)c1 [P19466]
4. COC(=O)c1cccc(Nc2c(-c3ccc([N+](=O)[O-])cc3)nc3cnccn23)c1 [P24823]
5. COc1ccc(-c2nc3cnccn3c2Nc2ccc(C(=O)N3CCOCC3)cc2)cc1 [P22405]

31.9
22.2
31.9
31.2
36.5

----------
# Experimental Target: PLpro of SARS-CoV-2 (Severe acute respiratory syndrome coronavirus 2, UniProt P0DTD1)
# Test Protocol: Enzyme activity test in vitro: inhibition of PLpro at fixed concentration 50 μM (RLRGG-AMC substrate)
# Assay type: biochemical
# Experimental Context: read-out: Inhibition rate at 50 μM (%)
Recorded Metric: inhibition at 50 µM (%)
Numbers only, in %.

COC(=O)c1cccc(Nc2c(-c3ccc(C)cc3)nc3cnccn23)c1 [P19515] = 37.1
CCOC(=O)c1ccc(Nc2c(-c3cc(Br)ccc3O)nc3cnccn23)cc1 [P22542] = 31.5
CNC(=O)c1ccc(Nc2c(-c3ccccc3)nc3cnccn23)cc1 [P22451] = 34.7
COc1ccc(-c2nc3cnccn3c2Nc2cccc(C(=O)NCCN3CCOCC3)c2)cc1 [P22437] = 24.2

Please state inhibition at 50 µM for every compound in the list that follows.
1. COc1ccc(-c2nc3cnccn3c2Nc2ccc(Cl)cc2)cc1OC [P19503]
2. O=C(NCc1ccco1)c1ccc(Nc2c(-c3ccccc3)nc3cnccn23)cc1 [P22435]
3. O=C(O)c1cccc(Nc2c(-c3ccc(O)cc3)nc3cnccn23)c1 [P19496]
4. CSc1ccc(-c2nc3cnccn3c2Nc2cccc(C(=O)NC3CCCCC3)c2)cc1 [P22448]
5. CCOC(=O)c1ccc(Nc2c(-c3ccc(O)c(OC)c3)nc3cnccn23)cc1 [P22551]

[43.6, 23.9, 40.5, 26.9, 21]

----------
# Experimental Target: PLpro of SARS-CoV-2 (Severe acute respiratory syndrome coronavirus 2, UniProt P0DTD1)
# Test Protocol: Enzyme activity test in vitro: inhibition of PLpro at fixed concentration 50 μM (RLRGG-AMC substrate)
# Type: biochemical
# Experimental Context: read-out: Inhibition rate at 50 μM (%)
Values of inhibition at 50 µM greater than or equal to 20% map to Yes; values below map to No.

Observe how each entry below is paired with its result.
O=C(O)c1cccc(Nc2c(-c3ccccc3O)nc3cnccn23)c1 = No
COC(=O)c1cccc(Nc2c(-c3ccc(F)cc3)nc3cnccn23)c1 = No
CSc1ccc(-c2nc3cnccn3c2Nc2cccc(C(=O)NCCN(C)C)c2)cc1 = Yes
O=C(NCC1CCCO1)c1cccc(Nc2c(-c3ccc(Cl)cc3)nc3cnccn23)c1 (centres unmarked) = No

Proceed to the following item.
Quick check: does CCNC(=O)c1ccc(Nc2c(-c3ccc(C)cc3)nc3cnccn23)cc1 have inhibition at 50 µM greater than or equal to 20%?
Yes

----------
Consider the following compounds; for each one, report its inhibition at 50 µM.
# Experimental Target: PLpro of SARS-CoV-2 (Severe acute respiratory syndrome coronavirus 2)
# Test Protocol: Enzyme activity test in vitro: inhibition of PLpro at fixed concentration 50 μM (RLRGG-AMC substrate)
# Type: biochemical
# Experimental Context: read-out: Inhibition rate at 50 μM (%)
Give bare numbers, in %.

COc1ccc(Nc2c(-c3ccc(OC)c(OC)c3)nc3cnccn23)cc1 = 32.3
CCOC(=O)c1ccc(Nc2c(-c3cccc(Cl)c3)nc3cnccn23)cc1 = 32.3
COC(=O)c1cccc(Nc2c(-c3ccc(Cl)cc3)nc3cnccn23)c1 = 23
CNC(=O)c1cccc(Nc2c(-c3ccccc3)nc3cnccn23)c1 = 30.2
COc1ccc(-c2nc3cnccn3c2Nc2ccc(C(=O)N3CCOCC3)cc2)cc1OC = 32.1

For each of the items listed, what is its inhibition at 50 µM?
1. CNC(=O)c1cccc(Nc2c(-c3ccc(Cl)cc3)nc3cnccn23)c1
2. COC(=O)c1ccc(-c2nc3cnccn3c2Nc2c(C)cccc2C)cc1

41.6
43.4

// batch mode: one inhibition at 50 µM value per listed entry
1. COc1ccc(-c2nc3cnccn3c2Nc2ccc3c(c2)OCO3)cc1OC
2. COC(=O)c1ccc(-c2nc3cnccn3c2Nc2ccc(C(C)C)cc2)cc1
3. COC(=O)c1ccc(-c2nc3cnccn3c2NC2CCCC2)cc1
4. COc1ccc(-c2nc3cnccn3c2Nc2ccc(C(=O)NCCN3CCOCC3)cc2)cc1
5. COC(=O)c1cccc(Nc2c(-c3ccc(SC)cc3)nc3cnccn23)c1
6. O=C(NCCN1CCOCC1)c1cccc(Nc2c(-c3ccccc3)nc3cnccn23)c1
7. Cc1cccc(C)c1Nc1c(-c2ccccc2)nc2cnccn12

42.2
22.3
21
31.7
41.7
22.8
35.8

Respectfully, I request inhibition at 50 µM for each entry included below.
1. COC(=O)c1ccc(-c2nc3cnccn3c2Nc2ccc(OC)cc2)cc1
2. CN(C)c1ccc(-c2nc3cnccn3c2Nc2cccc(C(N)=O)c2)cc1

1: 28.5; 2: 37.2

Please look at the items below and tell me inhibition at 50 µM for each one, in order.
1. CSc1ccc(-c2nc3cnccn3c2Nc2cccc(C(=O)N3CCOCC3)c2)cc1
2. CCNC(=O)c1cccc(Nc2c(-c3ccc(SC)cc3)nc3cnccn23)c1
3. COc1ccc(-c2nc3cnccn3c2Nc2ccc(C(=O)NCC3CCCO3)cc2)cc1OC (centres unmarked)
4. COc1ccc(-c2nc3cnccn3c2Nc2ccc(C(=O)N3CCCCC3)cc2)cc1OC
5. COc1ccc(-c2nc3cnccn3c2Nc2ccc(C(=O)NC3CCCCC3)cc2)cc1OC
6. COC(=O)c1cccc(Nc2c(-c3cccc(Br)c3)nc3cnccn23)c1
7. COC(=O)c1ccc(-c2nc3cnccn3c2Nc2ccc3c(c2)OCO3)cc1
8. CNC(=O)c1ccc(Nc2c(-c3ccc(OC)c(OC)c3)nc3cnccn23)cc1

[23.2, 22.2, 33.5, 31.8, 20.8, 12.9, 27.2, 42.2]

----------
# Experimental Target: PLpro of SARS-CoV-2 (Severe acute respiratory syndrome coronavirus 2, UniProt P0DTD1)
# Test Protocol: Enzyme activity test in vitro: inhibition of PLpro at fixed concentration 50 μM (RLRGG-AMC substrate)
# Type: biochemical
# Experimental Context: compound 50 μM, 10 min preincubation at 37° C., Table 1; read-out: Inhibition rate at 50 μM (%)
Assign TRUE whenever inhibition at 50 µM does not fall below 60%; assign FALSE whenever it does.

Illustrative cases are given below, each with its answer.
COC(=O)c1cccc(Nc2c(-c3cccc(Cl)c3)nc3cnccn23)c1 = FALSE
Cc1ccc(-c2nc3cnccn3c2Nc2ccc(C(=O)N3CCOCC3)cc2)cc1 = TRUE
COC(=O)c1cccc(Nc2c(-c3ccc(N4CCOCC4)cc3)nc3cnccn23)c1 = TRUE
O=C(NC1CCCCC1)c1cccc(Nc2c(-c3ccc(Cl)cc3)nc3cnccn23)c1 = FALSE

Now examine the next entry.
Check the entry COc1ccc(Nc2c(-c3ccc(OC)c(OC)c3)nc3cnccn23)cc1OC : does inhibition at 50 µM equal or exceed 60%?
TRUE
